- TARGET OF ASSAY: CDK1/CyclinB (Homo sapiens)
- Sequence (P06493 whole entry): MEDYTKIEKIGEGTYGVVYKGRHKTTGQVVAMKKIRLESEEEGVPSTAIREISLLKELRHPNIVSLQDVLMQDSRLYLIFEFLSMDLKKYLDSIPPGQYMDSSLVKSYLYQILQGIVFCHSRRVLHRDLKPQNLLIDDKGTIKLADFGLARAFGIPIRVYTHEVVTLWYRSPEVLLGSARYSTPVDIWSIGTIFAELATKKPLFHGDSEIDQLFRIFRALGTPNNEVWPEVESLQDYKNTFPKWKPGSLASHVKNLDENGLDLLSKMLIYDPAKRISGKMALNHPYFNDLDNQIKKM
- Sequence (P14635 whole entry partner): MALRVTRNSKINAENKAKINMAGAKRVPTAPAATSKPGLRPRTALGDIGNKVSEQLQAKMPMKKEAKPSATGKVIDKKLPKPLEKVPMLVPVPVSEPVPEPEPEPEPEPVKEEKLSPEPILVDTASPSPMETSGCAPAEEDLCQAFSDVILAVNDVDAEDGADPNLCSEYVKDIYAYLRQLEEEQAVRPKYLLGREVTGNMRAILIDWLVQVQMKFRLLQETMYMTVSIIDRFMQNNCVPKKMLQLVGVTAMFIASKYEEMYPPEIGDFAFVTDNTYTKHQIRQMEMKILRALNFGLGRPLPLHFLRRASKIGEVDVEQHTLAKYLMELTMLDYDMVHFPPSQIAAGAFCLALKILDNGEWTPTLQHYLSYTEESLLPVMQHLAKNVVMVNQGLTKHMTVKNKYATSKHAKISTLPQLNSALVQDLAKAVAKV
- ASSAY SUMMARY: Activated CDK1/CyclinB kinase inhibitory activity assay
pIC50: −log10 of the molar value.
MEASUREMENT TYPE: pIC50

In: What value of measured pIC50 is listed for CS(=O)(=O)N1CCC(NC(=O)c2n[nH]cc2NC(=O)c2c(Cl)cccc2Cl)CC1 [compound of the invention] ?
Out: > 6.00
